meta.source: patent US20210214410A1

In this section we review reported pKd values for a set of binders.
Molecular target: T1, human interleukin 13 receptor alpha 2 (IL-13Rα2), biotinylated (human, UniProt Q14627 27-343, limits assumed, biotinylated (site not stated))
T1 construct: The methods give construct limits only for IL-13Rα1 and IL-4Rα1; For IL-13Rα2 they say only that the biotinylated receptor was captured on the SA chip; also called IL13RA2; CD213a2
T1 sequence (looked up): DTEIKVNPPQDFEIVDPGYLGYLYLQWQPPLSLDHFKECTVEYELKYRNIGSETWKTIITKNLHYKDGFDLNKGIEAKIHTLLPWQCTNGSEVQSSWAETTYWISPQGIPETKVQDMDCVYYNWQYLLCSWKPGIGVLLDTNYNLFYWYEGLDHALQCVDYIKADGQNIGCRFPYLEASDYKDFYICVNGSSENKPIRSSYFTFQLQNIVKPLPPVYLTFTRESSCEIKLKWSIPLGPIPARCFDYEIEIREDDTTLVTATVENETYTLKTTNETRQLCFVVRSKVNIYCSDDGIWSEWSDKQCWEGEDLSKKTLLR
Experiment: SPR (Biacore T100), biotinylated receptor on SA chip, 1:1 kinetic fit
Convention used: pKd is expressed as -log10 of the molar concentration.

Consider the worked cases shown below.
binder | pKd
A7 (ligand, also called IL-13 variant A7 (L10I, V18I, D87G, T88S, L101H, K104R, K105A)) cytokine: PGPVPPSTAIRELIEELINITQNQKAPLCNGSMVWSINLTAGMYCAALESLINVSGCSAIEKTQRMLSGFCPHKVSAGQFSSLHVRGSKIEVAQFVKDLLHHLRALFREGQFN | 9.66
C9 (ligand, also called IL-13 variant C9 (L10H, R11L, V18I, R86K, D87E, K89R, L101N, K105T, R108K)) cytokine: PGPVPPSTAHLELIEELINITQNQKAPLCNGSMVWSINLTAGMYCAALESLINVSGCSAIEKTQRMLSGFCPHKVSAGQFSSLHVKETRIEVAQFVKDLLNHLKTLFKEGQFN | 9.59
A8 (ligand, also called IL-13 variant A8 (L10I, V18I, D87S, T88S, K89R, L101H, K104R, K105T)) cytokine: PGPVPPSTAIRELIEELINITQNQKAPLCNGSMVWSINLTAGMYCAALESLINVSGCSAIEKTQRMLSGFCPHKVSAGQFSSLHVRSSRIEVAQFVKDLLHHLRTLFREGQFN | 9.58
C10 (ligand, also called IL-13 variant C10 (L10H, R11L, V18I, R86M, K89R, R108K)) cytokine: PGPVPPSTAHLELIEELINITQNQKAPLCNGSMVWSINLTAGMYCAALESLINVSGCSAIEKTQRMLSGFCPHKVSAGQFSSLHVMDTRIEVAQFVKDLLLHLKKLFKEGQFN | 8.30
IL-13 variant C11 (IL-13Rα2-selective IL-13 superkine; L10H, R86T, D87G, T88R, R108K) (ligand, the first is used here; Made in insect Hi5 cells; also called polypeptide C11) PGPVPPSTAHRELIEELVNITQNQKAPLCNGSMVWSINLTAGMYCAALESLINVSGCSAIEKTQRMLSGFCPHKVSAGQFSSLHVTGRKIEVAQFVKDLLLHLKKLFKEGQFNHHHHHH | 13.00
A6 (ligand, also called IL-13 variant A6 (L10I, V18L, R86M, D87K, T88S, L101H, K104R, K105A)) cytokine: PGPVPPSTAIRELIEELLNITQNQKAPLCNGSMVWSINLTAGMYCAALESLINVSGCSAIEKTQRMLSGFCPHKVSAGQFSSLHVMKSKIEVAQFVKDLLHHLRALFREGQFN | 9.57
A11 (ligand, also called IL-13 variant A11 (L10V, V18I, D87S, T88S, L101F, K104R, K105T)) cytokine: PGPVPPSTAVRELIEELINITQNQKAPLCNGSMVWSINLTAGMYCAALESLINVSGCSAIEKTQRMLSGFCPHKVSAGQFSSLHVRSSKIEVAQFVKDLLFHLRTLFREGQFN | 9.41

Pending binder:
Memo: C7 (ligand, also called IL-13 variant C7 (R11S, I14M, T88S, L101N, K105A, R108K)) cytokine: PGPVPPSTALSELMEELVNITQNQKAPLCNGSMVWSINLTAGMYCAALESLINVSGCSAIEKTQRMLSGFCPHKVSAGQFSSLHVRDSKIEVAQFVKDLLNHLKALFKEGQFN , reported pKd: 9.57
